- System: L1210 leukemia
- Measurement Protocol: NCI 3LE31, i.p.-implanted L1210 lymphoid leukemia
- Assay type: in vivo, DBA/2 mice
- Experimental Setup: Mus musculus, L1210, ip, 100 mg/kg i.p. daily for nine days; read-out: T/C % (survival time treated/control)
- Procedure: The spectrum of antitumor activity of the compound of Example 1 was determined employing a number of standard National Cancer Institute (NCI) protocols. The antitumor activity was determined in vivo against several different tumors, employing various treatment schedules and routes of administration. […] The test animals were weighed and survivors recorded on a regular basis during a thirty day test period. […]
Reported response vs control in vivo at 100 mg/kg values for the following molecules.
Your answer is read as %, so omit the unit and give the number.

Example entries and their recorded answers appear below.
| Molecule | Measurement Target | Units | response vs control in vivo at 100 mg/kg |
| --- | --- | --- | --- |
| CC(C)c1cccc(C(C)C)c1NC(=O)c1c(O)n(-c2ccccc2)c(=S)n(-c2ccccc2)c1=O [Control U] | L1210 leukemia | % | 104 |
| O=C(Nc1ccccc1F)c1c(O)[nH]c(=S)[nH]c1=O | L1210 leukemia | % | 128 |
| O=C(Nc1ccc(F)cc1)c1c(O)[nH]c(=S)[nH]c1=O | L1210 leukemia | % | 133 |
| O=C(Nc1ccccc1)c1c(O)[nH]c(=S)n(-c2ccccc2)c1=O [Control O] | L1210 leukemia | % | 123 |
| COc1ccc(NC(=O)c2c(O)[nH]c(=O)[nH]c2=O)cc1 [Control F] | L1210 leukemia | % | 105 |
| CCOc1ccc(NC(=O)c2c(O)[nH]c(=S)[nH]c2=O)cc1 | L1210 leukemia | % | 178 |

GET /values?readout=response vs control in vivo at 100 mg/kg&item= O=C(Nc1cccc(F)c1)c1c(O)[nH]c(=S)[nH]c1=O
128

GET /values?readout=response vs control in vivo at 100 mg/kg&item= O=C(Nc1ccccc1Cl)c1c(O)[nH]c(=S)[nH]c1=O
127

GET /values?readout=response vs control in vivo at 100 mg/kg&item= COc1ccc(NC(=O)c2c(O)[nH]c(=S)[nH]c2=O)cc1
104

GET /values?readout=response vs control in vivo at 100 mg/kg&item= O=c1[nH]c(=S)[nH]c(O)c1C(=S)Nc1ccccc1 [Control W]
94
